// data source = patent US20200325187A1

Record form. Attribute: S/N vs BSA. Fill in for each entry.
Target: T1, hVEGF-A (8-109) (human, UniProt P15692 214-315)
T1 sequence (looked up): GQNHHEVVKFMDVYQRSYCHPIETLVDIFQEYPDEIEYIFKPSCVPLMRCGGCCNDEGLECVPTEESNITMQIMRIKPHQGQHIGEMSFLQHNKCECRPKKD
Test: spot phage ELISA

S/N vs BSA reading for GCKLLQPMWGCKQDSDCLAGCVCRWYQSCG (designed binder) [VEGF_CKP9.14] : 30.1

Lab note: measured S/N vs BSA of GCQLLEPMWGCKQDSDCLAGCVCHWYNSCG (designed binder) [VEGF_CKP9.9] was 19.7

Lookup result for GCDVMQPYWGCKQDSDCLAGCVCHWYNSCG (designed binder, also called EM63) [VEGF_CKP9.63] ; measured S/N vs BSA: 29.7

Recorded S/N vs BSA (binder GCHLLLPLWGCKQDSDCLAGCVCRWYHSCG (designed binder) [VEGF_CKP9.76] ): 15.5
